For each record, write down the corresponding EC80.
Test system: Puccinia triticina
Experiment: Antifungal activity against Puccinia triticina infected 2 weeks old wheat plant assessed as reduction of diseased leaf area treated 1 day before infection measured after 11 days
Type: functional
Response body: numeric value in µg/mL, unit text excluded.

Asked: State its EC80: "CC(C)[C@@H](C)Nc1c(-c2c(F)cc(F)cc2F)c(Cl)nc2nccnc12"
Given back: 77

Asked: State its EC80: "C[C@H](Nc1c(-c2c(F)cc(F)cc2F)c(F)nc2nccnc12)C(F)(F)F"
Given back: 39

Asked: State its EC80: Fc1cc(F)c(-c2c(F)nc3nccnc3c2NC(C2CC2)C(F)(F)F)c(F)c1 (centres undefined)
Given back: 16

Asked: State its EC80: "COc1nc2nccnc2c(NCC(C)C)c1-c1c(F)cc(F)cc1F"
Given back: 35

Asked: State its EC80: CCC(Nc1c(-c2c(F)cc(F)cc2F)c(F)nc2nccnc12)C(F)(F)F (centres undefined)
Given back: 10

Asked: State its EC80: "COc1nc2nccnc2c(NCC(C)C)c1-c1c(F)cccc1Cl"
Given back: 134

Asked: State its EC80: "CC(C)CNc1c(-c2cc(F)ccc2F)c(F)nc2nccnc12"
Given back: 118

Asked: State its EC80: "CC(C)CNc1c(-c2cccc(F)c2F)c(F)nc2nccnc12"
Given back: 157

Asked: State its EC80: CCC(C)Nc1c(-c2c(F)cc(F)cc2F)c(F)nc2nccnc12 (centres undefined)
Given back: 56

Asked: State its EC80: "C=CCOC(=O)[C@@H](Nc1c(-c2c(F)cc(F)cc2F)c(F)nc2nccnc12)C(C)C"
Given back: 31

Asked: State its EC80: "Fc1cc(F)c(-c2c(F)nc3nccnc3c2NCC(F)(F)F)c(F)c1"
Given back: 20

Asked: State its EC80: "COc1nc2nccnc2c(N[C@H](C)C(C)C)c1-c1c(F)cc(F)cc1F"
Given back: 129

Asked: State its EC80: "COc1nc2nccnc2c(N[C@H](C)C(C)C)c1-c1ncc(Cl)cc1Cl"
Given back: 26

====

For each record, write down the corresponding EC80.
System: Pyricularia grisea
Experiment: Antifungal activity against Magnaporthe grisea infected 3 weeks old rice plant assessed as reduction of diseased leaf area treated 2 days before infection measured after 6 days
Assay type: functional

Asked: State its EC80: CCC(C)Nc1c(-c2c(F)cc(F)cc2F)c(F)nc2nccnc12 (stereo not given)
Given back: 9 µg/mL

Asked: State its EC80: "CC(C)[C@@H](C)Nc1c(-c2c(F)cc(F)cc2F)c(Cl)nc2nccnc12"
Given back: > 200 µg/mL

Asked: State its EC80: "COc1nc2nccnc2c(NCC(C)C)c1C#Cc1ccccc1"
Given back: > 200 µg/mL

Asked: State its EC80: "C[C@H](Nc1c(-c2c(F)cc(F)cc2F)c(F)nc2nccnc12)C(F)(F)F"
Given back: 35 µg/mL

Asked: State its EC80: CCC(Nc1c(-c2c(F)cc(F)cc2F)c(F)nc2nccnc12)C(F)(F)F (stereo not given)
Given back: 10 µg/mL

====

For each record, write down the corresponding EC80.
Tested on: Pyricularia grisea
Assay: Antifungal activity against Magnaporthe grisea infected 3 weeks old rice plant assessed as reduction of diseased leaf area treated 2 days before infection measured after 6 days
Format: functional

Asked: Give the observed EC80 of "COc1nc2nccnc2c(N[C@H](C)C(C)C)c1-c1c(F)cc(F)cc1F" for Pyricularia grisea.
Given back: 100 µg/mL

Asked: Give the observed EC80 of "COC(=O)[C@@H](Nc1c(-c2c(F)cc(F)cc2F)c(F)nc2nccnc12)C(C)C" for Pyricularia grisea.
Given back: 57 µg/mL

Asked: Give the observed EC80 of "CC(C)CNc1c(-c2cccc(F)c2F)c(F)nc2nccnc12" for Pyricularia grisea.
Given back: > 200 µg/mL

Asked: Give the observed EC80 of "COc1nc2nccnc2c(NCC(C)C)c1-c1c(F)cc(F)cc1F" for Pyricularia grisea.
Given back: 42 µg/mL

====

Tested on: Pyricularia grisea
Test: Antifungal activity against Magnaporthe grisea infected 3 weeks old rice plant assessed as reduction of diseased leaf area treated 2 days before infection measured after 6 days
Format: functional
For each record, write down the corresponding EC80.
Response body: numeric value in µg/mL, unit text excluded.

Asked: Give the observed EC80 of "COc1nc2nccnc2c(NCC(C)C)c1-c1c(F)cccc1Cl" for Pyricularia grisea.
Given back: 110

Asked: Give the observed EC80 of "Fc1cc(F)c(-c2c(F)nc3nccnc3c2NCC(F)(F)F)c(F)c1" for Pyricularia grisea.
Given back: 11

Asked: Give the observed EC80 of "COc1nc2nccnc2c(N[C@H](C)C(C)C)c1-c1ncc(Cl)cc1Cl" for Pyricularia grisea.
Given back: 15

Asked: Give the observed EC80 of CC(C)C(C)Nc1c(-c2c(F)cc(F)cc2F)c(F)nc2nccnc12 (stereo not given) for Pyricularia grisea.
Given back: 26

Asked: Give the observed EC80 of "CC(C)(C)Nc1c(-c2c(F)cc(F)cc2F)c(F)nc2nccnc12" for Pyricularia grisea.
Given back: 35

Asked: Give the observed EC80 of "COc1nc2nccnc2c(NCC(C)C)c1-c1ncc(Cl)cc1F" for Pyricularia grisea.
Given back: 29

Asked: Give the observed EC80 of Fc1cc(F)c(-c2c(F)nc3nccnc3c2NC(C2CC2)C(F)(F)F)c(F)c1 (stereo not given) for Pyricularia grisea.
Given back: 104

Asked: Give the observed EC80 of "CC(C)[C@@H](C)Nc1c(-c2c(F)cc(F)cc2F)c(F)nc2nccnc12" for Pyricularia grisea.
Given back: 11

Asked: Give the observed EC80 of "C=CCOC(=O)[C@@H](Nc1c(-c2c(F)cc(F)cc2F)c(F)nc2nccnc12)C(C)C" for Pyricularia grisea.
Given back: 110

====

System: Puccinia triticina
Test: Antifungal activity against Puccinia triticina infected 2 weeks old wheat plant assessed as reduction of diseased leaf area treated 1 day before infection measured after 11 days
Format: functional
Property Measured: EC80

Asked: State its EC80: CC(C)C(C)Nc1c(-c2c(F)cc(F)cc2F)c(F)nc2nccnc12 (stereo unspecified)
Given back: < 20 µg/mL

Asked: State its EC80: "COC(=O)[C@@H](Nc1c(-c2c(F)cc(F)cc2F)c(F)nc2nccnc12)C(C)C"
Given back: < 6 µg/mL

Asked: State its EC80: "COc1nc2nccnc2c(NCC(C)C)c1C#Cc1ccccc1"
Given back: > 200 µg/mL

Asked: State its EC80: "CC(C)[C@@H](C)Nc1c(-c2c(F)cc(F)cc2F)c(F)nc2nccnc12"
Given back: < 6 µg/mL

Asked: State its EC80: "COc1nc2nccnc2c(NCC(C)C)c1-c1ncc(Cl)cc1F"
Given back: > 200 µg/mL

Asked: State its EC80: "CC(C)(C)Nc1c(-c2c(F)cc(F)cc2F)c(F)nc2nccnc12"
Given back: > 200 µg/mL
